- Assay target: Recombinant human PKD2 (Homo sapiens, UniProt Q9BZL6)
- Sequence (Q9BZL6 whole entry): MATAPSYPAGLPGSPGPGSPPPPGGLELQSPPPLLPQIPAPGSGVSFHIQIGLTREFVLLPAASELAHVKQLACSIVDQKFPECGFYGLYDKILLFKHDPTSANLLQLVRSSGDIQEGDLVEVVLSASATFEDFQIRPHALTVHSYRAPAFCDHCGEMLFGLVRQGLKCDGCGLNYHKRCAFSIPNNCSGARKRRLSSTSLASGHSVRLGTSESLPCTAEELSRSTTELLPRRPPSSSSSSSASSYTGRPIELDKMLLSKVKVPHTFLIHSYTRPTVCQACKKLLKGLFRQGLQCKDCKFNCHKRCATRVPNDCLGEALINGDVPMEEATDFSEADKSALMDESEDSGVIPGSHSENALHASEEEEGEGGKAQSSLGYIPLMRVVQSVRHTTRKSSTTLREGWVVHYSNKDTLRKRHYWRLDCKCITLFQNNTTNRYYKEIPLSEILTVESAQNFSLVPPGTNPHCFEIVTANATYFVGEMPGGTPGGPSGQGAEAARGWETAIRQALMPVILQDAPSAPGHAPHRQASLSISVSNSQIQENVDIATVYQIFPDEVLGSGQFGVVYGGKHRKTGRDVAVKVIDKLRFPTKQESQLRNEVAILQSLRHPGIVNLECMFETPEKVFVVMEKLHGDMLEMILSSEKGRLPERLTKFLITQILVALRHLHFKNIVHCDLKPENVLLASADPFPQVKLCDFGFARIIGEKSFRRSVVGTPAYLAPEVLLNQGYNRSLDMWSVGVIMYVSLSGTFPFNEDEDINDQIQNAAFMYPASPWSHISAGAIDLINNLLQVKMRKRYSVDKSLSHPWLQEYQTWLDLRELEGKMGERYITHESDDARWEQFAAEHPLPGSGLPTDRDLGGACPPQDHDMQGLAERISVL
- Measurement protocol: Radiometric PKD kinase assay, 10-point IC50
- Type: biochemical
- Measurement setup: IC50 PKD2, mean ± SEM
Endpoint label: IC50 (nM)
Please give a number only; it is taken to be in nM.

So for CC(C)(C)n1nc(-c2cccc3ccccc23)c2c(N)ncnc21 , the logged IC50 turned out to be 133
